Molecular target: Integrin beta-2 (Homo sapiens) + Integrin alpha-M (Homo sapiens) (UniProt P05107+P11215)
Sequence (P05107 whole entry, looked up, other chains not shown): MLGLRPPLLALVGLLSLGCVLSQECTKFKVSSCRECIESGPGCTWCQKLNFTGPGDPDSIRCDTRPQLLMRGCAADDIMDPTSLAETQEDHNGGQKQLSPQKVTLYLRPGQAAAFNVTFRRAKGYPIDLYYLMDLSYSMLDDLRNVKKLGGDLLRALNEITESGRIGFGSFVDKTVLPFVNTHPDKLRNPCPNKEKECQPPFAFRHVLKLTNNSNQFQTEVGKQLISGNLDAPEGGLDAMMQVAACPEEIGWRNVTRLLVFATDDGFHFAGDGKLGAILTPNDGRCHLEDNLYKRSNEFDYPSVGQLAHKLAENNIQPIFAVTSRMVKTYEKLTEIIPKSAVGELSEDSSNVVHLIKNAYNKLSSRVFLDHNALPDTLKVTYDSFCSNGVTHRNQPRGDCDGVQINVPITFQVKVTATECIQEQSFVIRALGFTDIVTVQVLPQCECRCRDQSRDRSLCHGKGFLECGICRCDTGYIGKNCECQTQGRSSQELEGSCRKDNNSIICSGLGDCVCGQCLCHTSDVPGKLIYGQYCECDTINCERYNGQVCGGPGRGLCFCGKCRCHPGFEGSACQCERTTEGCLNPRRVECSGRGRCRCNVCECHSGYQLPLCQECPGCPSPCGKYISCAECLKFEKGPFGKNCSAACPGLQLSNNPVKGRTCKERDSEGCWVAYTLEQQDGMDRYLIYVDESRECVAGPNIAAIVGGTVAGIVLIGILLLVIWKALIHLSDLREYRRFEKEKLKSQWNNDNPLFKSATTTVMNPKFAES
Experiment: inhibitors of CD11b/CD18 adhesion to fibrinogen, primary screen, K562 cells, luminescence (AID 1497)
Conditions: ATPlite luminescence, at 10 µM, hits give high values, Mn2+ added to activate the integrin
In all, about 93,000 compounds went through this assay and about 500 (0.54%) were called active. This is one part of a sample in which actives are shown more often than they occur.
Consider the following compounds; for each one, report its inhibition.
# unit: % | format: bare number

IN: Please give measured inhibition of the following entry: CCOCCCNC(=O)C(=O)NCCCOCC
OUT: -3

IN: Recall and state the measured inhibition for Cc1nn(CCOc2ccccc2)c(=O)n1-c1ccccc1F .
OUT: -0.4

IN: Give inhibition for COc1ccc(NS(=O)(=O)c2ccc(NC(=S)NC(=O)/C=C/c3ccc(C)cc3)cc2)nn1
OUT: -15

IN: State its inhibition for this compound: COc1ccc(C(CC(=O)Nc2ccc(C)cc2)NC(=O)C(F)(F)F)cc1 (stereo unspecified)
OUT: -24.1

IN: Report measured inhibition; entry is O=C(Nc1nnc(C2COc3ccccc3O2)o1)c1ccc(F)cc1 (stereo unspecified)
OUT: -27.3

IN: Give inhibition for OCC(CO)(CO)NCc1ccc(-c2ccccc2)cc1
OUT: 3.8

IN: State its inhibition: Cc1nc(CNS(=O)(=O)c2cccnc2)cs1
OUT: -2.1

IN: Answer with the recorded inhibition of CCOc1ccc(S(=O)(=O)N/N=C(\C)c2ccc(Cl)c(Cl)c2Cl)cc1 only.
OUT: 8.2

IN: Identify measured inhibition associated with CCOc1ccc(NC(=O)c2ccccc2NS(C)(=O)=O)cc1
OUT: -19.4

IN: Please list inhibition recorded for the compound CCCCn1c(=O)c(CCC(=O)OCC(=O)Nc2ccc(C)c(Cl)c2)nc2ccccc21
OUT: 6.4

IN: Return inhibition (reported value) for this compound: COCCn1c(=NC(=O)c2ccccc2[N+](=O)[O-])sc2cc(S(C)(=O)=O)ccc21
OUT: 25.4

IN: Identify measured inhibition corresponding to OC(COCC1COc2ccccc2O1)CN1CCN(c2ccc(F)cc2)CC1 (stereo unspecified)
OUT: -1.1

IN: Quickly give me recorded inhibition for Cc1ccc(S(=O)(=O)NCc2csc(C)n2)c(C)c1
OUT: -9

IN: Return reported inhibition. Input compound: COC(=O)Cc1ccc(NC(=S)NCc2ccccc2)cc1
OUT: 0.4

IN: Report inhibition, nothing else, for this compound: Cc1nc2ccccc2cc1OCc1ccc(F)cc1
OUT: 98.8

IN: Give reported inhibition value for CCCc1c(C)nc2c(Br)cccc2c1Cl
OUT: 13.2

IN: Give inhibition for COc1ccc(-c2csc(NC(=O)CCCc3cccs3)n2)cc1
OUT: 6.2

IN: Please report the measured inhibition for Cc1ccc(C)c(NC(=S)NCC(c2cccnc2)N2CCOCC2)c1 (stereo unspecified)
OUT: -16.8

IN: Item Cc1[nH]c2ccccc2c1/C=N/NC(=O)CNC(=O)c1ccc2c(c1)OCO2 : provide inhibition
OUT: -16

IN: Quote inhibition reported for Cc1cc(C)c(NC(=S)N2CCCC2C(=O)O)c(C)c1 (stereo unspecified) please.
OUT: -8.3

IN: Give recorded inhibition. Cc1c(C(=O)OC(C)C)sc(NC(=O)c2cccnc2)c1C#N
OUT: 86

IN: Note down inhibition recorded for C=CCNC(=S)NNC(=O)COc1c(Cl)cc(Cl)cc1Cl
OUT: -6.9

IN: Supply recorded inhibition for CC(C)C(=O)Nc1cccc(NC(=O)c2ccc([N+](=O)[O-])cc2Cl)c1 here.
OUT: -3.1

IN: Provide one value: measured inhibition of CCCCCCc1cc2cc(-c3nnc(-c4ccccc4)o3)c(=O)oc2cc1O
OUT: 94

IN: Return reported inhibition. Input compound: CCCCC1N2CC3([N+](=O)[O-])CN1CC([N+](=O)[O-])(C2)C3(C)C (stereo unspecified)
OUT: -3.2

IN: Please indicate inhibition recorded for CCOC(=O)c1cc2ccccc2nc1C
OUT: -6.1

IN: Query inhibition for CCCn1c(C)cc(/C=C(\C#N)C(=O)OCC(=O)Nc2cc(OC)c(OC)c(OC)c2)c1C
OUT: 5.7

IN: # return recorded inhibition for input CC(C)Nc1nnc(SCC(=O)/C=C2\N(C)c3ccccc3C2(C)C)s1
OUT: 21.6

IN: Please give measured inhibition of the following entry: Cc1nc(CNS(=O)(=O)c2ccc(Oc3ccccc3)cc2)cs1
OUT: 91.7

IN: Give a short answer stating reported inhibition for O=C(Nc1ccccc1)c1ccccc1NC(=O)C(F)(F)F .
OUT: 77.1

IN: Please report the measured inhibition for COCCOCCn1cnc2ccccc21
OUT: 2.3

IN: Give the value of inhibition reported for the following: COC(=O)c1ccc(C(=O)OC)c(NC(=S)N2CCN(c3cc(Cl)ccc3C)CC2)c1
OUT: 5.6

IN: Consider the compound C/C(=N\NC(=O)c1cc2c(s1)CCC(C)C2)c1cccnc1 (stereo unspecified) . State its measured inhibition.
OUT: 1.2

IN: Provide one value: measured inhibition of CN1CCN(c2ccc(S(=O)(=O)Nc3ccccc3)cc2[N+](=O)[O-])CC1
OUT: 31

IN: // fetch inhibition given entry Cc1ccc(C2CC(=O)NC(SCC(=O)OCc3ccccc3)=C2C#N)o1 (stereo unspecified)
OUT: 29.9

IN: Provide only the value of recorded inhibition for Cc1ccc(/C=N/NC(=O)CNC(=O)COc2ccccc2)o1
OUT: -10.5

IN: Give the measured inhibition for COc1ccc(CCNc2cc(C)nc3c(-c4ccc(Cl)cc4)c(C)nn23)cc1OC
OUT: 2.7

IN: Read the entry CCCN1CNC(=S)N(CCc2ccccc2)C1 and write its reported inhibition.
OUT: -28.3

IN: Name the recorded inhibition of the item O=C(CN1CCN(c2ccccn2)CC1)N1CCc2ccccc21 in your answer.
OUT: 5.5

IN: For the compound CN(C(=O)c1c(Cl)cnn1C)C12CC3CC(CC(C3)C1)C2 , report inhibition.
OUT: -23

IN: Answer with the recorded inhibition for the compound listed here: CCCn1c(SCC(=O)Nc2ccc(C)c(S(=O)(=O)N3CCOCC3)c2)n[nH]c1=O
OUT: -10.9

IN: Please list inhibition recorded for the compound N#C/C=C\Oc1ccc(Cl)cc1N
OUT: 51.7

IN: Output measured inhibition for this item: Cc1cccc(NC(=O)c2ccccc2NC(=O)C(C)(C)C)n1
OUT: -2

IN: Name the recorded inhibition of the compound listed here: COC(=O)c1ccc(NC(=O)c2ccccc2NS(=O)(=O)c2ccccc2)cc1
OUT: 102

IN: Look up and state reported inhibition for CC(=O)N1CCN(CC(=O)Nc2ccc(SC(F)F)cc2)CC1
OUT: -3.7

IN: Determine from records and report inhibition for Cc1nc2ccccc2cc1O
OUT: 20.1

* * *

Target: Integrin beta-2 (Homo sapiens) + Integrin alpha-M (Homo sapiens) (UniProt P05107+P11215)
Experiment: inhibitors of CD11b/CD18 adhesion to fibrinogen, primary screen, K562 cells, luminescence (AID 1497)
Details: ATPlite luminescence, at 10 µM, hits give high values, Mn2+ added to activate the integrin
Screen size: about 93,000 compounds; about 500 (0.54%) were called active. The sample as a whole holds a higher share of actives than the screen did.
Give inhibition for every item shown.
Dear colleague, please return just the value in %, with no unit written.

IN: Respond only with inhibition recorded for Cc1ccc(Nc2nc(-c3sc(NC(=O)c4ccccc4)nc3C)cs2)cc1
OUT: 16.8

IN: Let me know recorded inhibition for Cc1cc(N2CCN(S(=O)(=O)c3ccc(C)c(C)c3)CC2)c2ccccc2n1 , thanks.
OUT: 41.1

IN: Annotate the compound CCOc1ccc(NC(=O)COc2ccc(C(=O)NC3CCCc4ccccc43)cc2OC)cc1 (configuration not stated) with its measured inhibition.
OUT: 1.8

IN: Give the value of inhibition reported for the following: Cc1[nH]n(-c2cccc(Cl)c2)c(=O)c1-c1ccc(Cl)cc1
OUT: 94.7

IN: Respond only with inhibition recorded for CC(C)NC(=S)N1CCN(C(c2ccccc2)c2ccccc2)CC1
OUT: -11.6

IN: Identify the reported inhibition for the following entry. Cc1cccc(-n2c(C)cc(/C=N\NC(=O)c3cccs3)c2C)c1
OUT: 37.3

IN: Look up inhibition of Cc1ccc(CSCC(N)C(=O)O)cc1 (configuration not stated) and report it.
OUT: -2

IN: Identify measured inhibition corresponding to O=S(=O)(Nc1ccc(Oc2ncccn2)c(Cl)c1)c1ccc(F)cc1
OUT: -21.1

IN: Entry CN(C)S(=O)(=O)c1cccc(NC(=S)N/N=C/C(=O)c2ccccc2)c1 needs its inhibition filled in; supply it.
OUT: 14

IN: Identify measured inhibition corresponding to Cc1sc2ncnc(Sc3nc4ccccc4s3)c2c1C
OUT: -5.9

IN: Answer with reported inhibition of Cc1nc(C)c(-c2csc(NCCc3ccccc3)n2)s1
OUT: 89.8

IN: Using the record for Cc1ccc(S(=O)(=O)Nc2ccc3ncccc3c2)cc1 , state its measured inhibition.
OUT: 75.1

IN: Specify reported inhibition for the compound shown: CCOc1ccc(/C=N/OCC(=O)NCc2cccs2)cc1
OUT: 9

IN: In one line, give reported inhibition of the entry Cc1nc(NC(=O)c2cccc(Cl)c2)sc1-c1csc(Nc2cccc(Cl)c2)n1 .
OUT: -4

IN: Identify the reported inhibition for the following entry. COC(=O)C(NC(=O)c1ccc(OC)cc1)(Nc1ncc(S(=O)(=O)c2ccc([N+](=O)[O-])cc2)s1)C(F)(F)F (configuration not stated)
OUT: 47.7

IN: Quickly give me recorded inhibition for COc1cccc(N(C(=O)C2COc3ccccc3O2)C(C(=O)NC2CCCCC2)c2ccc(O)cc2)c1 (configuration not stated)
OUT: -5

IN: Give a short answer stating reported inhibition for O=C(NNC(=S)Nc1ccc(Br)cc1Cl)c1ccco1 .
OUT: 89.9

IN: Return inhibition (reported value) for this compound: COc1ccc(C(=O)Nc2ccc(CN3CCOCC3)cc2)cc1
OUT: -3.3

IN: Supply recorded inhibition for COc1ccc([N+](=O)[O-])cc1NC(=O)C(C)OC(=O)C1c2ccccc2Oc2ccccc21 (configuration not stated) here.
OUT: 26.5

IN: Tell us which inhibition value is on record for Cc1cc(SCC(=O)NCCN2C(=O)CSC2=O)nc2ccccc12
OUT: 13

IN: Name the recorded inhibition of the compound listed here: Cc1ccc2nc(SCc3cn4c(C)cc(C)nc4n3)[nH]c2c1
OUT: -5.6

IN: // Input: Cc1nn(-c2ccccc2)c(Cl)c1/C=C/C(=O)c1ccc(O)cc1 . Output its inhibition only.
OUT: 25.9
